- Test system: MS2 coat protein
- EXPERIMENTAL_DETAILS: apparent KD of MS2 coat protein; designed switch direction (-1 OFF switch, 1 ON switch): -1; higher = weaker reporter binding
- EXPERIMENTAL_SETUP: input ligand: none
# cutoff 200 nM applies to apparent KD of MS2 coat protein; >= gives YES, < gives NO

Hi team, for UAUUAUCAAGCUAGAUCCCACAUGAGGAUCACCCAUGUGCUCGUCUUAUUUCCGGAAUUAUUGGGCUCUCGUCUUUU [JR_STOV1_Sub092] (Eterna round: R97, puzzle: Sensor, turn-off variant 1) , is the recorded apparent KD of MS2 coat protein at or above 200 nM? YES
